molecular target: Cytochrome P450 2C19 (Homo sapiens); assay: blockers of cytochrome P450 2C19 activity – biochemical, luminescence, ADME assay, primary screen (AID 778); details: CYP2C19 Supersomes, luciferin-H EGE luminescence, 30 min; at 5 µM; active compounds read high;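 note: plate controls were negative control wells for no effect and 2.5 mM tranylcypromine positive control for full effect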
Among all 96,000 compounds or so, about 20,000 (21%) were called active. The list is a sample of the results.
Below: a set of entries, each annotated with reported inhibition.
Output spec: scalar in %, unitless text.

Would you please look over these solved cases?
1. CC(C)Nc1nc(N(c2ccccc2)c2ccccc2)nc(-n2ccnc2)n1 | 39.2
2. CCOc1ccc(NC(=O)CCC(=O)n2nc(C)cc2C)cc1 | -8.5
3. C=CCn1c(SCC(=O)c2c(N)n(C)c(=O)n(C)c2=O)nc2sc(CC)cc2c1=O | 1.3
4. Cc1sc(NC(=S)NC(=O)c2cccs2)nc1-c1ccc(CC(C)C)cc1 | 4.5
5. CC1=C2C(=O)OC(c3ccoc3)C2(C)CCC1 (configuration not stated) | 78.1

Query: Lab note: record inhibition of Cc1ncc(CC(=O)n2cc(C(=O)c3cc(Cl)ccc3O)cn2)s1 tested on Cytochrome P450 2C19 (Homo sapiens).
Response: 61

Query: Lab note: record inhibition of O=C(Nc1ccc(F)c(Cl)c1)C1CCN(S(=O)(=O)c2cccnc2)CC1 tested on Cytochrome P450 2C19 (Homo sapiens).
Response: 41.7

* * *

biological target: Cytochrome P450 2C19 (Homo sapiens) (UniProt P33261); assay: blockers of cytochrome P450 2C19 activity – biochemical, luminescence, ADME assay, primary screen (AID 778); conditions: CYP2C19 Supersomes, luciferin-H EGE luminescence, 30 min; at 5 µM;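 note: plate controls were negative control wells for no effect and 2.5 mM tranylcypromine positive control for full effect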
Sequence (P33261 whole entry, looked up): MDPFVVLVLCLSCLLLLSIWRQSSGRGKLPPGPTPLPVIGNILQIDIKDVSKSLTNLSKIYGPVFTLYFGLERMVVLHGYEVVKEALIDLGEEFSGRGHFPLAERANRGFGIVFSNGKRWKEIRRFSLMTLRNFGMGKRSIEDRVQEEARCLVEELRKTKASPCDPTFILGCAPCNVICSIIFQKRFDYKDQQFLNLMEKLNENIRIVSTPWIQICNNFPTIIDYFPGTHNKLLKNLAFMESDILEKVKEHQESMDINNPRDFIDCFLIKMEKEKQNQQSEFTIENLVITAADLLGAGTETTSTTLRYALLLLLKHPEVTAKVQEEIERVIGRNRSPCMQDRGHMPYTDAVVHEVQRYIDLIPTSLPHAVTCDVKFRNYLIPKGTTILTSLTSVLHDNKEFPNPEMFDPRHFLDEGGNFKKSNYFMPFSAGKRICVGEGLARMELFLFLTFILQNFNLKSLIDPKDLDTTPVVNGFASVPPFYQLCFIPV
Screen size: about 96,000 compounds; about 20,000 (21%) were called active.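 How the source made its calls: active means CYP2C19 inhibition above a set limit at 5 µM in the primary screen (cut at about 50% in these data); inactive means the rest.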 The list is a sample of the results.
Just give me one of these, please: active, inactive

For orientation, consider the following solved cases.
1. COC(CNC(=O)Cn1ncc2ccsc2c1=O)OC | inactive
2. Cc1ccc(CCNC(=O)C2CCN(S(=O)(=O)N3CCCC3)CC2)cc1 | inactive
3. CCc1ccccc1NC(=O)CN(C)S(=O)(=O)c1ccc2c(c1)c(=O)n(C)c(=O)n2C | inactive
4. Cc1nnc(SCC(=O)N2CCc3ccccc3C2)s1 | inactive
5. Oc1ccccc1/C=N/n1c(-c2cccs2)n[nH]c1=S | inactive
6. COc1ccc(NC(=O)Cn2c(-c3ccc(OC)cc3)cn(-c3ccc(C)cc3)c2=O)cc1 | inactive

Query: Entry CCOc1ncccc1C(=O)OCc1cn2cc(Cl)ccc2n1 : call = ?
Response: active

Query: Entry CC(C)COC(=O)c1ccc(NC(=O)C2C3C=CC(C3)C2C(=O)O)cc1 (configuration not stated) : call = ?
Response: active

Query: Entry Cc1nnc(SCC(=O)NCc2ccccc2)s1 : call = ?
Response: inactive

Query: Entry COC(=O)c1ccc(S(=O)(=O)c2ccc(C(=O)OC)s2)s1 : call = ?
Response: inactive

Query: Entry CN1CCC2(CC1)NC(=O)NC2=O : call = ?
Response: inactive

Query: Entry CSc1ncccc1C(=O)OCC(=O)N1CCOCC1 : call = ?
Response: inactive

* * *

target: Cytochrome P450 2C19 (Homo sapiens); assay: blockers of cytochrome P450 2C19 activity – biochemical, luminescence, ADME assay, primary screen (AID 778); settings: CYP2C19 Supersomes, luciferin-H EGE luminescence, 30 min; at 5 µM; active compounds read high;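 note: plate controls were negative control wells for no effect and 2.5 mM tranylcypromine positive control for full effect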
The whole screen tested about 96,000 compounds, of which about 20,000 (21%) were called active. A selection follows.
endpoint.name: inhibition (%)
Output spec: scalar in %, unitless text.

Would you please look over these solved cases?
1) C[C@@H](Nc1nc(-c2ccccc2)nc2c1oc1ccccc12)C(=O)O | 1.5
2) Cc1occc1C(=O)N1CCCc2ccccc21 | 16.5
3) Cc1ccc(-c2noc(CC(c3ccccc3)c3ccccc3)n2)cc1 | 19.9
4) COc1ccc(NC(=O)C(CC(C)C)NS(=O)(=O)c2ccc3c(c2)CCN3C(C)=O)cc1OC (stereo not given) | 31.2

Query: // fetch inhibition given entry CS(=O)(=O)N(C(=O)NC(=O)NC1CCS(=O)(=O)C1)C1CCCCC1 (stereo not given)
Response: -6.1

Query: // fetch inhibition given entry Cc1ccc(S(=O)(=O)NCC(=O)N(CC(=O)NC2CCCCC2)Cc2ccco2)cc1
Response: 15.5
